Just for reference, ChEMBL document CHEMBL1156828 is where these values come from.

molecular target: Mitogen-activated protein kinase 14 (Homo sapiens); experiment: Inhibition of p38alpha-mediated ATF2 phosphorylation in presence of ATP
Sequence (Q16539 whole entry): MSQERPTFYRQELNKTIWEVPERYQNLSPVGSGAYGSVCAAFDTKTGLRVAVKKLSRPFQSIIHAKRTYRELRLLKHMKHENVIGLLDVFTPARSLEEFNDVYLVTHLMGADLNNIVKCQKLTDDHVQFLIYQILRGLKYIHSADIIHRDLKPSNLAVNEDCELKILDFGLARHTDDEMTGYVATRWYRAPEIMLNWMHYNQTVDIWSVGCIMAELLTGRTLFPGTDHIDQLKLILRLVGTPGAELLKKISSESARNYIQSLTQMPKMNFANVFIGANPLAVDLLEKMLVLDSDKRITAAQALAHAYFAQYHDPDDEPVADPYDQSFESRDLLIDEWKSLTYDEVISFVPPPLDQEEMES
pIC50: −log10 of the molar value.
measurement-kind: pIC50

molecule: CCC(C)Nc1cc(-c2nc3cc(C)c(C)cc3nc2-c2ccc(F)cc2)ccn1 (stereo unspecified)
system-tested: Mitogen-activated protein kinase 14 (Homo sapiens)
number: 6.23
//
molecule: Cc1cc2nc(-c3ccc(F)cc3)c(-c3ccnc(N[C@H]4CC[C@H](O)CC4)c3)nc2cc1C
system-tested: Mitogen-activated protein kinase 14 (Homo sapiens)
number: 6.59
//
molecule: CCC(C)Nc1cc(-c2nc3ccccc3nc2-c2ccc(F)cc2)ccn1 (stereo unspecified)
system-tested: Mitogen-activated protein kinase 14 (Homo sapiens)
number: 6.94
//
molecule: Cc1cc2nc(-c3ccncc3)c(-c3ccc(F)cc3)nc2cc1C
system-tested: Mitogen-activated protein kinase 14 (Homo sapiens)
number: 5.43
//
molecule: CC(C)C(C)Nc1cc(-c2nc3cc(Cl)c(Cl)cc3nc2-c2ccc(F)cc2)ccn1 (stereo unspecified)
system-tested: Mitogen-activated protein kinase 14 (Homo sapiens)
number: 5.02

(I) COc1ccc2nc(-c3ccncc3)c(-c3ccc(F)cc3)nc2c1
(II) Cc1cc2nc(-c3ccc(F)cc3)c(-c3ccnc(NC(C)C(C)C)c3)nc2cc1C (stereo unspecified)
(III) CC(C)[C@H](C)Nc1cc(-c2nc3ccccc3nc2-c2ccc(F)cc2)ccn1
(IV) Fc1ccc(-c2nc3ncccc3nc2-c2ccncc2)cc1
stdin: // ranking: key=pIC50, reverse=True Field: ranking. Enter the labels in the order requested.
stdout: III, II, IV, I
(III: 6.24, II: 5.86, IV: 5.50, I: 5.21)

(a) C[C@H](Nc1cc(-c2nc3ccccc3nc2-c2ccc(F)cc2)ccn1)c1ccccc1
(b) CC(C)Nc1cc(-c2nc3cccnc3nc2-c2ccc(F)cc2)ccn1
stdin: For the two items a and b , which reports the higher pIC50 value? Pick one; state its label.
stdout: b

(I) Cc1cc2nc(-c3ccc(F)cc3)c(-c3ccnc(NCc4ccccc4)c3)nc2cc1C
(II) Cc1cc2nc(-c3ccc(F)cc3)c(-c3ccnc(NC(C)C)c3)nc2cc1C
(III) CC(C)Nc1cc(-c2nc3ccccc3nc2-c2ccc(F)cc2)ccn1
(IV) CC(C)C(C)Nc1cc(-c2nc3ccccc3nc2-c2ccc(F)cc2)ccn1 (stereo unspecified)
stdin: Order each entry by recorded pIC50, climbing from the minimum. Field: ranking. Enter the labels in the order requested.
stdout: I, IV, II, III
